Test system: OVCAR-3
test_details: NCI tumour cell line growth inhibition, 48 h
Activity calls are given as the source filed them. Rule as the data show it: active = GI50 up to about 1.1 µM and inactive = higher.
Labels: active, inactive

compound="CCOC(=O)C1=C(C)N2CCOC2(C)C(C(=O)OC)C1c1cccc(Cl)c1 (centres undefined)" classification=inactive
compound=O=C(O)c1ccccc1/N=N/c1c(O)c(S(=O)(=O)O)cc2cc(S(=O)(=O)O)ccc12 classification=inactive
compound=CCOC(=O)c1nc2ccc(C(F)(F)F)cc2nc1Nc1ccc(OC)c(OC)c1 classification=inactive
compound=COC(=O)NN1C(=O)C(=P(c2ccccc2)(c2ccccc2)c2ccccc2)C(C(=O)OC)=C1C classification=inactive
compound=Clc1ccc(-c2nnc3sc4nc5ccccc5c-4nn23)c(Cl)c1 classification=inactive
compound=Cc1c(-c2ccccn2)ccc2ccccc12 classification=inactive
compound=CCCCCC(=O)Nc1[nH]cnc1C(N)=O classification=inactive
compound="CCOP(=O)(OCC)C(C)(CC)NC (centres undefined)" classification=inactive
compound=CC(C)(C)c1ccc(-c2nnc(SCc3ccc(Cl)cc3)n2-c2cccc(C(F)(F)F)c2)cc1 classification=inactive
compound=CC(=O)NNC(=S)N/C=C1/C(=O)C=C(C)OC1=O classification=inactive
compound="CCOC(=O)C1=C(C)NC(c2ccccc2)=C(C(=O)OCc2ccccc2)C1C#Cc1ccccc1 (centres undefined)" classification=inactive
compound=CC(=O)OCC(=O)[C@@]12OC(C)(C)O[C@@H]1C[C@H]1[C@@H]3CC(C=O)=C4C=C(OCCCl)CC[C@]4(C)[C@@]3(F)[C@@H](O)C[C@@]12C classification=inactive
compound=CC1(C)C(=O)CCC(=O)C(C)(C)C2=CC=C(O2)C(C)(C)C(=O)CCC(=O)C(C)(C)C2=CC=C1O2 classification=inactive
compound=Cc1ccc(C(=O)Nc2ccc(CP(=O)(O)O)cc2CP(=O)(O)O)cc1NC(=O)Nc1cc(C(=O)Nc2ccc(CP(=O)(O)O)cc2CP(=O)(O)O)ccc1C classification=inactive
compound=O=C(O)C/C=C/CC(=O)O classification=inactive
compound=Nc1nnc2oc3ccc4ccccc4c3cc1-2 classification=inactive
compound=CN(C)CCS/C(=N\c1ccccc1)N1CCCCC1 classification=inactive
compound=CCCn1c(SCC)c2ccccc2c1-c1nc(F)nc(F)n1 classification=inactive
compound="CC(C)[Si](OCC1CC(C#N)OC(C)(C)O1)(C(C)C)C(C)C (centres undefined)" classification=inactive
compound=CCOC(=O)/C(C#N)=C/c1ccc(CO)o1 classification=inactive
compound=Cc1ccnc(NC(=S)Nc2cccc(Cl)c2)c1 classification=inactive
compound="Cc1ccc(/N=N/N(C)C(C)C(O)Cc2ccccc2)cc1 (centres undefined)" classification=inactive
compound=Cc1nc2ccc(F)cc2c2c1CCS2 classification=inactive
compound=CCOC(=O)c1cc2cc(CSc3ccccc3)ccc2oc1=O classification=inactive
compound="O=C1OC(Cl)C(N=P(c2ccccc2)(c2ccccc2)c2ccccc2)=C1Cl (centres undefined)" classification=inactive
compound="Cn1c(=O)c2c(nc3n2CC(C(=O)O)N3)n(C)c1=O (centres undefined)" classification=inactive
compound="Cc1ccc(C2SCC(=O)N2c2ccc(-n3c(-c4ccccc4)nc4ccccc4c3=O)cc2)cc1 (centres undefined)" classification=inactive
compound=CCn1c(=O)c2c3ccc(OC)cc3[nH]c2c2ccc(OC)cc21 classification=inactive
compound="CS(=O)(=O)OC1CCC2(C#N)CCC1C2=O (centres undefined)" classification=inactive
compound=N#CCc1c(-c2ccccc2)n(S(=O)(=O)c2ccccc2)c2ccccc12 classification=inactive
compound=CN(/N=C/c1ccc(Cl)cc1)C1=NCCCCN1 classification=inactive
compound="COC(=O)CC1NC(=O)C1C1(C)OCCO1 (centres undefined)" classification=inactive
compound=NCCSc1nc(-c2ccccc2)c(-c2ccccc2)o1 classification=inactive
compound=CC/C(Cl)=N\OC(=O)Nc1ccc(OC)cc1 classification=inactive
compound=CC(=O)/C(=C/n1ccc(=O)[nH]c1=S)C(=O)Nc1ccccc1C classification=inactive
compound="CC(=O)OC1CC2CCC1(C)C2(C)C (centres undefined)" classification=inactive
compound=COc1cccc2c(N)c3cccc(C(=O)NCCN(C)C)c3nc12 classification=active
compound=COc1ccc2/c(=C/c3ccc(N(C)C)cc3)c3cc(-c4ccccc4)[n+](C)n3c2c1 classification=active
compound=C[C@H]1[C@@H](c2ccccc2)O[B-](c2ccccc2)(c2ccccc2)[N+]1(C)C classification=inactive
compound="O=C1/C(=C/c2ccc(O)cc2)CCC1CNc1ccc(Cl)cc1 (centres undefined)" classification=inactive
compound=Cc1ccc(/C=C/C(=O)C(C)C)cc1 classification=inactive
compound=O=C1CCCC2=C1CC1=C(CCCC1=O)N2c1ccc([N+](=O)[O-])cc1 classification=inactive
compound=N/C(=N\O)N/N=C/c1cccc(F)c1 classification=inactive
compound="O=C(O)C1=C(O)C(C(=O)O)C23CCCCCCCCCCC12C(C(=O)O)C(O)=C3C(=O)O (centres undefined)" classification=inactive
